Every entry's value here was drawn from paper PMC10385868.

# target.or.test.system: VEEV nsP2 protease (Venezuelan equine encephalitis virus, UniProt P27282)
# Sequence (P27282 1003-1322 limits assumed): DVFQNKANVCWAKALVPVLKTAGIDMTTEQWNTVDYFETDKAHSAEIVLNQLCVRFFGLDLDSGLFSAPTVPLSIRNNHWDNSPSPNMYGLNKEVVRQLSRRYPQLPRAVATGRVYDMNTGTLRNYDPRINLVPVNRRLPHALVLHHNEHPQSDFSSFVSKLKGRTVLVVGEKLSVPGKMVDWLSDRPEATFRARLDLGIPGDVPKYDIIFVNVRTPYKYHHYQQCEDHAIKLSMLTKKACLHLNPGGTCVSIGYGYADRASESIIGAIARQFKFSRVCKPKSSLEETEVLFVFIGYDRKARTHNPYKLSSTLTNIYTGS
# assay.method.text: biochemical
# condition.context: read-out: VEEV nsP2 PROTEASE k2/Ki
Rule: measured kinact/KI below 90 M⁻¹ s⁻¹ gets yes; anything equal to or greater than 90 M⁻¹ s⁻¹ gets no.

Quick check: does CC(C)CCNC(=O)[C@H](CC(C)C)NC(=O)[C@H]1O[C@@H]1C(=O)NCc1ccncc1 [NCGC00488908-01] have kinact/KI under 90 M⁻¹ s⁻¹?
yes

Strictly below 90 M⁻¹ s⁻¹: is that where kinact/KI of CC(C)CCNC(=O)[C@H](CC(C)C)NC(=O)[C@H]1O[C@@H]1C(=O)NCc1cccnc1 [NCGC00488907-01] sits?
yes

Regarding CC(C)CCNC(=O)[C@H](CC(C)C)NC(=O)[C@H]1O[C@@H]1C(=O)NCc1cccc(C#N)c1 [NCGC00488909-01] , kindly confirm whether its kinact/KI is beneath 90 M⁻¹ s⁻¹.
no

Find out if reported kinact/KI for CCC(C)C(NC(=O)C1OC1C(=O)NC(CC(C)C)C(=O)NCCC(C)C)C(=O)N1CCCC1C(=O)OCc1ccccc1 (stereo not drawn) [NCGC00484087-01] is less than 90 M⁻¹ s⁻¹
no

Confirm or reject: kinact/KI of CC(C)CCNC(=O)[C@H](CC(C)C)NC(=O)[C@H]1O[C@@H]1C(=O)NCCCCO [NCGC00488906-01] lies strictly below 90 M⁻¹ s⁻¹
yes

Hi there! Is kinact/KI for CC(C)CCNC(=O)[C@H](CC(C)C)NC(=O)[C@H]1O[C@@H]1C(=O)NCc1ccc(C#N)cc1 [NCGC00488904-01] below 90 M⁻¹ s⁻¹, do you know?
yes

====

# System: VEEV-Trinidad
# assay.method.text: microbe, parasite or virus in culture
# Format: cell-based
# condition.context: Venezuelan equine encephalitis virus, A549
Exercise: state measured EC50 for each of the compounds provided.
Answer with a number only, understood to be in µM.

GET EC50 where system = VEEV-Trinidad and item = CCCNC(=O)[C@H]1O[C@@H]1C(=O)N[C@H](C(=O)N1CCC[C@H]1C(=O)OC)[C@@H](C)CC [CA074me, CA074 methyl ester]
11

Report EC50 on VEEV-Trinidad for this entry: `CC(C)CCNC(=O)[C@H](CC(C)C)NC(=O)[C@H]1O[C@@H]1C(=O)NCc1cccnc1`
6

====

# target.or.test.system: VEEV nsP2 protease (Venezuelan equine encephalitis virus)
# assay.method.text: biochemical
# Format: biochemical
# condition.context: read-out: IC50
Please provide measured IC50 for the entries that follow.

Output IC50 of O=c1[nH]c(=O)n(-c2ccccc2F)c(O)c1/C=C1\C=Nc2ccccc21 [MLS001197204-01]
30 µM

Recall and state the measured IC50 for O=C(CSc1ccccn1)Nc1nonc1[N+](=O)[O-] [MLS001030320-01] .
> 100 µM

Check the records and state IC50 for Cc1cc(C(=O)CCl)c(C)n1-c1cccc([N+](=O)[O-])c1 [MLS000877947-01]
> 200 µM

Input Cc1ccc(C2=NN(C(=O)CCl)C(c3ccco3)C2)o1 (stereo not shown) [MLS001179882-01] , output reported IC50.
> 200 µM

Given COc1ccc(C2CC(c3cccs3)=NN2C(=O)CCl)cc1OC (stereo not shown) [MLS001178292-01] , respond with its IC50.
> 200 µM

Provide only the value of recorded IC50 for COc1cc2c(cc1OC)C(c1cc(Br)ccc1F)N(C(=O)CCl)CC2 (stereo not shown) [MLS001198393-01]
> 200 µM

Input CCc1nc(N2CCN(C(=O)CCl)CC2)c2c3c(sc2n1)CC(C)CC3 (stereo not shown) [MLS001212815-01] , output reported IC50.
> 200 µM

====

# assay.method.text: in vitro
# condition.context: PAMPA
Assignment: determine reported Papp for the given molecules.
// return numeric value only (unit: ×10⁻⁶ cm/s, not printed)

Please report the measured Papp for `CC(C)CCNC(=O)[C@H](CC(C)C)NC(=O)[C@H]1O[C@@H]1C(=O)NCc1ccncc1`
7.6

Specify reported Papp for the molecule shown: CCOC(=O)[C@H]1O[C@@H]1C(=O)N[C@@H](CC(C)C)C(=O)NCCC(C)C [E64d]
89

Item CCCNC(=O)[C@H]1O[C@@H]1C(=O)N[C@H](C(=O)N1CCC[C@H]1C(=O)OC)[C@@H](C)CC [CA074me, CA074 methyl ester] : provide Papp
33

Give recorded Papp. CCC(C)C(NC(=O)C1OC1C(=O)NC(CC(C)C)C(=O)NCCC(C)C)C(=O)N1CCCC1C(=O)OCc1ccccc1 (stereo not drawn)
1090

====

# Test system: CHIKV
# assay.method.text: microbe, parasite or virus in culture
# Format: cell-based
# condition.context: Chikungunya virus, U2OS, read-out: CHIKV EC50
measurement.label: pEC50
The read-out pEC50 is expressed as -log10 of concentration in moles per litre.

Return reported pEC50. Input compound: `CC(C)CCNC(=O)[C@H](CC(C)C)NC(=O)[C@H]1O[C@@H]1C(=O)NCc1cccnc1`
4.59

Annotate the compound `CC(C)CCNC(=O)[C@H](CC(C)C)NC(=O)[C@H]1O[C@@H]1C(=O)NCc1ccc(C#N)cc1` with its measured pEC50.
4.83

Look up and state reported pEC50 for `CC(C)CCNC(=O)[C@H](CC(C)C)NC(=O)[C@H]1O[C@@H]1C(=O)NCc1ccncc1`
4.30

Give me measured pEC50, please, for this compound: `CC(C)CCNC(=O)[C@H](CC(C)C)NC(=O)[C@H]1O[C@@H]1C(=O)NCc1cccc(C#N)c1`
5.01

Dear colleague, please send me the reported pEC50 for `CC(C)CCNC(=O)[C@H](CC(C)C)NC(=O)[C@H]1O[C@@H]1C(=O)NCCCCO` when you can.
4.73

====

# assay.method.text: in vitro
# condition.context: African green monkey
measurement.label: CC50

Could you please provide reported CC50 for CC(=O)NC1C(=O)N(CCN2CCOCC2)c2ccc(Br)cc21 (stereo not drawn) ? Thanks!
> 50 µM

Consider the compound CCc1ccc2c(c1)C(NC(C)=O)C(=O)N2CCN1CCOCC1 (stereo not drawn) . State its measured CC50.
> 50 µM

Look up and state reported CC50 for `O=C(/C=C/c1cccs1)Nc1scc(-c2ccccc2)c1C(=O)O`
> 50 µM

====

Record form. Attribute: PAMPA. Fill in for each entry.
State the answer as a number, implicitly in ×10⁻⁶ cm/s.

Return value of PAMPA for input CCCNC(=O)[C@H]1O[C@@H]1C(=O)N[C@H](C(=O)N1CCC[C@H]1C(=O)OC)[C@@H](C)CC [CA074me, CA074 methyl ester] , no commentary.
33

Indicate its recorded PAMPA; the molecule in question is CCC(C)C(NC(=O)C1OC1C(=O)NC(CC(C)C)C(=O)NCCC(C)C)C(=O)N1CCCC1C(=O)OCc1ccccc1 (centres unmarked) [NCGC00484087-01]
1089.1

Quickly give me recorded PAMPA for CC(C)CCNC(=O)[C@H](CC(C)C)NC(=O)[C@H]1O[C@@H]1C(=O)NCc1ccncc1 [NCGC00488908-01]
7.6

====

Please provide measured solubility for the entries that follow.
# assay.method.text: physchem
Answer format: numeric, µg/mL implied, no suffix.

For CC(C)CCNC(=O)[C@H](CC(C)C)NC(=O)[C@H]1O[C@@H]1C(=O)NCCCCO [NCGC00488906-01] , write its solubility.
15.9

Name the recorded solubility of the compound listed here: CCOC(=O)[C@H]1O[C@@H]1C(=O)N[C@@H](CC(C)C)C(=O)NCCC(C)C [E64d]
24

Report measured solubility; entry is CC(C)CCNC(=O)[C@H](CC(C)C)NC(=O)[C@H]1O[C@@H]1C(=O)NCCCO [NCGC00487434-01]
22

Let me know recorded solubility for CCC(C)C(NC(=O)C1OC1C(=O)NC(CC(C)C)C(=O)NCCC(C)C)C(=O)N1CCCC1C(=O)OCc1ccccc1 (stereo not shown) [NCGC00484087-01] , thanks.
4.1

Output measured solubility for this item: CC(C)CCNC(=O)C(CC(C)C)NC(=O)C1OC1C(=O)O (stereo not shown) [E64c, reference compound]
33

Identify measured solubility associated with CCCNC(=O)[C@H]1O[C@@H]1C(=O)N[C@H](C(=O)N1CCC[C@H]1C(=O)OC)[C@@H](C)CC [CA074me, CA074 methyl ester]
22

====

# target.or.test.system: VEEV nsP2 protease (Venezuelan equine encephalitis virus, UniProt P27282)
# assay.method.text: biochemical
# Type: biochemical
measurement.label: IC50 (µM)
# unit: µM | format: bare number

State its IC50 for this molecule: CCc1ccc2c(c1)C(NC(C)=O)C(=O)N2CCN1CCOCC1 (stereo not shown) [MLS001215951-01]
18

Hello, please tell me recorded IC50 for this one: O=C(/C=C/c1cccs1)Nc1scc(-c2ccccc2)c1C(=O)O [MLS000773385-01]
15

Give me measured IC50, please, for this molecule: CC(=O)NC1C(=O)N(CCN2CCOCC2)c2ccc(F)cc21 (stereo not shown) [MLS001215963-01]
16

Recall and state the measured IC50 for CC(=O)NC1C(=O)N(CCN2CCOCC2)c2ccc(Br)cc21 (stereo not shown) [MLS001215987-01] .
14
